Please respond with reported protein stability index for every item in the list.
# Test system: Saccharomyces cerevisiae;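 further: PSI is a weighted mean of sequencing reads over stability bins, variants kept only with over 10 reads, mCherry proximal and sfGFP distal, peptide attached via GGGS linker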
# method-notes: protein stability index of tFT-peptide fusion (C-terminal peptide) (PSI (0-1 scale)); higher = more stable (slower turnover)
# assay-setup: genetic background: wild type; temperature: 30 C
# respond with the number and nothing more

Ask: I'd like to know its protein stability index. The sequence in question is `PHLPSSPSPYSP`
Reply: 0.689

Ask: I'd like to know its protein stability index. The sequence in question is `ASLGPCLPLSLN`
Reply: 0.695

Ask: I'd like to know its protein stability index. The sequence in question is `SLTLAHPGVDLA`
Reply: 0.709

Ask: I'd like to know its protein stability index. The sequence in question is `PSLLLPPYSSAP`
Reply: 0.743

Ask: I'd like to know its protein stability index. The sequence in question is `SLSCDITRFVEY`
Reply: 0.712

Ask: I'd like to know its protein stability index. The sequence in question is `LDFPPLRLILRL`
Reply: 0.538

Ask: I'd like to know its protein stability index. The sequence in question is `NLRLYDCKVAPP`
Reply: 0.691

Ask: I'd like to know its protein stability index. The sequence in question is `SLFFPLPLSSLF`
Reply: 0.736

Ask: I'd like to know its protein stability index. The sequence in question is `SLSTLVFSFCVL`
Reply: 0.517

Ask: I'd like to know its protein stability index. The sequence in question is `PLLTPPFFPPPP`
Reply: 0.759

Ask: I'd like to know its protein stability index. The sequence in question is `VYIVLLLLFLRP`
Reply: 0.308

Ask: I'd like to know its protein stability index. The sequence in question is `LPLHAPPPHRHP`
Reply: 0.683

Ask: I'd like to know its protein stability index. The sequence in question is `KDVYEKHLNKQT`
Reply: 0.722

Ask: I'd like to know its protein stability index. The sequence in question is `PLPTSRKSFGLV`
Reply: 0.665

Ask: I'd like to know its protein stability index. The sequence in question is `VGFCFDGVHFRA`
Reply: 0.639

Ask: I'd like to know its protein stability index. The sequence in question is `FNVSCLRPNMGE`
Reply: 0.712

Ask: I'd like to know its protein stability index. The sequence in question is `KSKGGGTEPNRR`
Reply: 0.695

Ask: I'd like to know its protein stability index. The sequence in question is `IGSCLSRTRKRR`
Reply: 0.692

Ask: I'd like to know its protein stability index. The sequence in question is `HSPPAGPPHTKT`
Reply: 0.669

Ask: I'd like to know its protein stability index. The sequence in question is `RGGGVRYGVARR`
Reply: 0.68

Ask: I'd like to know its protein stability index. The sequence in question is `SGPGPGAVGATC`
Reply: 0.702

Ask: I'd like to know its protein stability index. The sequence in question is `PTYDSLPLLDNC`
Reply: 0.673

Ask: I'd like to know its protein stability index. The sequence in question is `PLPPLPSTHPTL`
Reply: 0.698

Ask: I'd like to know its protein stability index. The sequence in question is `GLPGYAWGRSGG`
Reply: 0.586

Ask: I'd like to know its protein stability index. The sequence in question is `ESDSEITYNKKQ`
Reply: 0.729
